- target.of.assay: Human IMPα5 aa 74–538 (lacking the IMPβ binding domain) (human, UniProt P52294 74-538)
- Sequence (P52294 74-538): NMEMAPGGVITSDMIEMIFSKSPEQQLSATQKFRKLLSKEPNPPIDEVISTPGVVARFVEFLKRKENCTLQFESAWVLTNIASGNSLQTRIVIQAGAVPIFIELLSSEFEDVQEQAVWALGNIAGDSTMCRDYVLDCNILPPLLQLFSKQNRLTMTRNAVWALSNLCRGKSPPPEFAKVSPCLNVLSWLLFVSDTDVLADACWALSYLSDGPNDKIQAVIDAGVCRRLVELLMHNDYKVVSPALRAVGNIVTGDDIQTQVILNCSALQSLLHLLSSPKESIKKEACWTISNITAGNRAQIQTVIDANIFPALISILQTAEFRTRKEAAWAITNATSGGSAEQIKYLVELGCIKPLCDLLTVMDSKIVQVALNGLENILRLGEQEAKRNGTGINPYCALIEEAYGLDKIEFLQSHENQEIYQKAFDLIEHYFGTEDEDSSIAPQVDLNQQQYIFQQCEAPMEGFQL
- test.protocol: FP
No end group written: not given here.
measurement.label: pKd
Numbers only, as −log10 of the molar value.

Quick one: pKd of SGKRKKIRTIAAYPLGVGKS (also: FITC-labelled, site not given here) [FITC-labelled HeV M NLS1 peptide] ?
5.83
